system: hT40, dGA, dGAE and truncated tau fragments; assay: Binding ELISA / epitope mapping of anti-tau scAbs with truncated tau proteins and 13mer peptides; design: species or system human; settings: Table 18; '3a' & '3b' series scAbs
MEASURED ENDPOINT: Short epitope on hT40

3aH6: N-terminal anti-tau clone, Table 6; SEQ ID NO: 423 (protein, 3aH6 amino acid sequence) QVQLQESGPSLVKPSQTLSLTCTVSGFSLSSNGVGWVRQAPGKVPEWLGDISSVGKKYANPALKSRLSFTRDTSKSQVSLSLSSVTTEDTAVYYCVKCRDGGVTYGYDIDYWGPGLLVTASSEGKSSGASGESKVDDQAVVTQPSSVSGSLGQSVSITCSGSSGNVGYGDYVSWFQQFHGSAPKLLIYGATNLASGVPARFSGSRSGNTATLTISSLHAEDEADYYCASYDSSSGGVFGSGTRLTVLG | 1-49

Consider the molecule 3aA6: anti-tau clone, Table 8; SEQ ID NO: 418 (protein, 3aA6 amino acid sequence) QVRLQESGSSLVKPSQTLSLVCTVSGFPLTSNAVGWVRQAPGKAPEWLGLIDIDGDTAYNPALESRLSITRDTSKSQVSLSLSSVAIEDTAVYYCARHYDKWGYADSIDYWGPGLLVTVSSEGKSSGASGESKVDDQALLTQPSSVFGSLGQRVSITCSGSSSNVGYGDYVGWYQQVPGSAPKLLIYDATTRASGVPDRFSGSRSGNTATLTISSLQAEDEADYYCASYQNERSGVFGSGTRLTVLG and give its measured Short epitope on hT40.
147-157
